B1: NELF-E aptamer (parent)
chain: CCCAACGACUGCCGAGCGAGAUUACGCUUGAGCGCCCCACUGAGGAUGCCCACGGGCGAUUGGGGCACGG

variants of: B1; test: HiTS-RAP; settings: with NELF-E (Drosophila)
Hi! Just check whether Kd is below 7 nM. Below gives condition met, equal or above gives condition not met.

[
  {
    "sequence.variant": "C13U U28C",
    "class.assignment": "condition met"
  },
  {
    "sequence.variant": "C17G G20A",
    "class.assignment": "condition met"
  },
  {
    "sequence.variant": "C9G U10C",
    "class.assignment": "condition met"
  },
  {
    "sequence.variant": "G16U",
    "class.assignment": "condition met"
  },
  {
    "sequence.variant": "A4G C35A",
    "class.assignment": "condition not met"
  },
  {
    "sequence.variant": "A4G G48A",
    "class.assignment": "condition not met"
  },
  {
    "sequence.variant": "G42U",
    "class.assignment": "condition not met"
  },
  {
    "sequence.variant": "A19G U29C",
    "class.assignment": "condition met"
  }
]

Given the entry C9G A15U , would its reported Kd be below 7 nM?
condition not met

Given the entry G11A G18A , would its reported Kd be below 7 nM?
condition not met

Given the entry A8U C13A , would its reported Kd be below 7 nM?
condition not met

Given the entry A8U U23G , would its reported Kd be below 7 nM?
condition met

Given the entry C37U , would its reported Kd be below 7 nM?
condition not met

Given the entry G14U U29G , would its reported Kd be below 7 nM?
condition met

Given the entry A5U C17G , would its reported Kd be below 7 nM?
condition met

Given the entry A4G A67U , would its reported Kd be below 7 nM?
condition met

Given the entry A5G G26U , would its reported Kd be below 7 nM?
condition not met

Given the entry U22G C51A , would its reported Kd be below 7 nM?
condition not met

Given the entry U29C C36U , would its reported Kd be below 7 nM?
condition met

Given the entry C6G G55A , would its reported Kd be below 7 nM?
condition met

Given the entry A4U G11U , would its reported Kd be below 7 nM?
condition met

Given the entry A4G G63A , would its reported Kd be below 7 nM?
condition not met

Given the entry A19G U29G , would its reported Kd be below 7 nM?
condition met

Given the entry U10G C25U , would its reported Kd be below 7 nM?
condition met

Given the entry C6G G7C , would its reported Kd be below 7 nM?
condition not met

Given the entry U23G A67G , would its reported Kd be below 7 nM?
condition met

Given the entry U22G G56U , would its reported Kd be below 7 nM?
condition met

Given the entry G7U A21G , would its reported Kd be below 7 nM?
condition met

Given the entry A31G C51U , would its reported Kd be below 7 nM?
condition not met

Given the entry A8U G56U , would its reported Kd be below 7 nM?
condition met

Given the entry A19U U22G , would its reported Kd be below 7 nM?
condition met

Given the entry A4G U60C , would its reported Kd be below 7 nM?
condition not met
